# assay.text: Acid-catalyzed hydrolysis of enol ethers in THF/1 M HCl, percent remaining by GC-FID
# Format: physicochemical
# test.settings: Table 1; THF/1M HCl, 504 h
# Method: Each enol ether was dissolved in a 4:1 THF/1 M HCl mixture and the percent remaining over time measured relative to an internal standard. After mixing, 2 mL of this solution were removed with a volumetric pipet and used to obtain the time zero measurement. 2 mL of 1 M HCl were mixed with the remaining 8 mL of the THF solution. […] The vials were stored at room temperature until analyzed. […] Samples of the organic phase were analyzed by GC-FID. […] The top phase then was analyzed by GC-FID. […]
endpoint.label: enol ether remained after 504 h (21 days) (%)
Unit % implied. Number only.

Data request: Reported enol ether remained after 504 h (21 days) for CC/C=C\CCOC(=O)C(C)OC=Cc1ccc(OC)cc1 (racemic) : what is it?
Data returned: 46.8

Data request: Reported enol ether remained after 504 h (21 days) for CCCCCC(CC)OC=Cc1ccccc1 (stereo not shown) [(2-(octan-3-yloxy)vinyl)benzene, reference compound] : what is it?
Data returned: 4.5

Data request: Reported enol ether remained after 504 h (21 days) for CC/C=C\CCOC=Cc1ccc(OC)cc1 [Compound 51, reference compound] : what is it?
Data returned: 14.6

Data request: Reported enol ether remained after 504 h (21 days) for C(=Cc1ccccc1)OCCc1ccccc1 [(2-phenethoxyvinyl)benzene, reference compound] : what is it?
Data returned: 39.5
